# System name: Cyclin-dependent kinase 6 (Homo sapiens) (UniProt Q00534)
# Sequence (Q00534 whole entry): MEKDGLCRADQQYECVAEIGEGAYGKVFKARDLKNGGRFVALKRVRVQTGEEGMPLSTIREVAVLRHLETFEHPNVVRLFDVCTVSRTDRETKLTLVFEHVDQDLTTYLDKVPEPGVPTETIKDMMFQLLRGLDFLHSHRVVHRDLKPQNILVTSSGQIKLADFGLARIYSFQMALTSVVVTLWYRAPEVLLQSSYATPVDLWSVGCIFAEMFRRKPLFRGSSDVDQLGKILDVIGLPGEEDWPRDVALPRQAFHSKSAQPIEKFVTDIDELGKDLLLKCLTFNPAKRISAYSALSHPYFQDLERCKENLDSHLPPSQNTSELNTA
# label = bin(measured ΔTm), where bins are LOW: < 0.1 °C; MID: ≥ 0.1 °C and < 0.4 °C; HIGH: ≥ 0.4 °C

{"Compound": "Ic1cccc(CSc2nnc(-c3ccncc3)o2)c1", "Classification": "LOW"}
{"Compound": "CC(C)c1cc(/C=C(\\C#N)C(=O)NCCCc2ccccc2)cc(C(C)C)c1O", "Classification": "MID"}
{"Compound": "CSc1nc(-c2ccc(F)cc2)c(-c2ccnc(NC(C)c3ccccc3)c2)[nH]1 (racemic)", "Classification": "LOW"}
{"Compound": "O=C1Cc2c([nH]c3ccc(Br)cc23)-c2ccccc2N1 [KENPAULLONE]", "Classification": "HIGH"}
{"Compound": "Cn1cc(/C=C2/C(=O)Nc3ccc(S(N)(=O)=O)cc32)c2ccccc21", "Classification": "LOW"}
{"Compound": "Cl.Cn1cc(C2=C(c3ccc4cc5n(c4c3)CCC(CN)C5)C(=O)NC2=O)c2ccccc21 (configuration not stated)", "Classification": "HIGH"}
{"Compound": "O=S(=O)(c1cccc2c(Cl)cccc12)N1CCCNCC1", "Classification": "HIGH"}
{"Compound": "C[S+]([O-])c1ccc(CSc2nc(-c3ccc(F)cc3)c(-c3ccncc3)[nH]2)cc1 (configuration not stated)", "Classification": "MID"}
{"Compound": "Oc1cc(O)cc(/C=C/c2ccc(O)c(O)c2)c1 [PICEATANNOL]", "Classification": "MID"}
{"Compound": "Cc1ccc(NC(=O)c2cccc(N(C)C)c2)cc1NC(=O)c1ccc(O)cc1", "Classification": "LOW"}
{"Compound": "N#C/C(=C1/Nc2ccccc2S1)c1ccnc(NCCc2cccnc2)n1", "Classification": "HIGH"}
{"Compound": "CC(C)n1cnc2c(NCc3ccccc3)nc(NCCCO)nc21", "Classification": "MID"}
{"Compound": "Cc1cc(C=C2C(=O)C=CC2=O)cc(C)c1O", "Classification": "LOW"}
{"Compound": "CN(C)CC1CCn2c(c(C3=C(c4c[nH]c5ccccc45)C(=O)NC3=O)c3ccccc32)C1 (configuration not stated)", "Classification": "HIGH"}
{"Compound": "Oc1ccc(-c2nc(-c3ccc(F)cc3)c(-c3ccncc3)[nH]2)cc1", "Classification": "MID"}
{"Compound": "O=C1Nc2cc(Br)ccc2/C1=C1/Nc2ccccc2/C1=N\\O", "Classification": "LOW"}
